Task for the reader: assign each of the following molecules its reported Ki.
target: Kinesin-like protein KIF11 (Homo sapiens); assay: Inhibition of human wild type Eg5 using varying ATP levels in presence of saturating levels of microtubule by Lineweaver-Burke plot
Numbers only, in nM.

A selection of reference data follows.
NC(=O)Nc1ccc(-c2ccc(C3(C(F)(F)F)N=N3)cc2)cc1 ... 330
O=C1CCc2cc(-c3ccc(C(F)(F)F)cc3)ccc2N1 ... 1.8

(Q) What value of Ki has been recorded for this entry: NC(=O)Nc1ccc(-c2ccc(C(F)(F)F)cc2)cc1F
(A) 8.8

====

biological target: Kinesin-like protein KIF11 (Homo sapiens, UniProt P52732, D130V); experiment: Inhibition of human KSP D130V mutant using varying ATP levels in presence of saturating levels of microtubule by Lineweaver-Burke plot
Sequence (P52732 whole entry D130V): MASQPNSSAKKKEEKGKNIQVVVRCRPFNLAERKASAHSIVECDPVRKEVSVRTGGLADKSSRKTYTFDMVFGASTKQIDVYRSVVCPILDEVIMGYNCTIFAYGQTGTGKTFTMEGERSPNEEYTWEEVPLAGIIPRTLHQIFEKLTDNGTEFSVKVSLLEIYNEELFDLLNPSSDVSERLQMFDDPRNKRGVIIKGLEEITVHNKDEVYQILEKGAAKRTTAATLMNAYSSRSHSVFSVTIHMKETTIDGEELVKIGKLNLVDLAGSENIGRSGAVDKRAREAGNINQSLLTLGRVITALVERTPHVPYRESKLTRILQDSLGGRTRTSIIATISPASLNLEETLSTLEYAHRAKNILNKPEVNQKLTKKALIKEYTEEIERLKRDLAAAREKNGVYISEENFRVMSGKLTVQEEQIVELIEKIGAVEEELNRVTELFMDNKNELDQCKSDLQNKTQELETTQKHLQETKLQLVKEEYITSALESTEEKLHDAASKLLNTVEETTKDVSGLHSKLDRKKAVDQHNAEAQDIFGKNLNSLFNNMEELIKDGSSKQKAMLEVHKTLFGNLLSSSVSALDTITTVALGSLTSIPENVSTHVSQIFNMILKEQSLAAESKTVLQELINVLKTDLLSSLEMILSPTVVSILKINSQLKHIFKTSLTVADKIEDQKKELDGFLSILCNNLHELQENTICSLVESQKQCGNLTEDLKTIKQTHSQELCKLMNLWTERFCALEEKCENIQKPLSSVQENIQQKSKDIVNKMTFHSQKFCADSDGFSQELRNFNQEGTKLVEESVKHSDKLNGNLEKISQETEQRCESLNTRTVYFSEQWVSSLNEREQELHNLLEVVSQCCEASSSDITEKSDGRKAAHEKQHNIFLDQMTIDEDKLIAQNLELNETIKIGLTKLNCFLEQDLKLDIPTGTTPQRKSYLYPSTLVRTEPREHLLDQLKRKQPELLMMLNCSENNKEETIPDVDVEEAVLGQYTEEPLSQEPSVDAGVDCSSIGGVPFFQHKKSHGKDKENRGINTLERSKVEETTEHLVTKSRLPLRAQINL
Attribute measured: Ki (nM)
Give bare numbers, in nM.

NC(=O)Nc1ccc(-c2ccc(C(F)(F)F)cc2)cc1F ... 10

Let's switch to this molecule now.
(Q) What value of Ki has been recorded for this entry: O=C1CCc2cc(-c3ccc(C(F)(F)F)cc3)ccc2N1
(A) 2.2

====

tested on: HCT-116; assay: Antiproliferative activity against IC95 biaryl selected drug-resistant against human HCT116 cells after 72 hrs by Cell titer Glo assay; format: functional, cell-based; settings: HCT-116, 72 h
Attribute measured: IC50
Please state the value followed by its unit.

O=C1CCc2cc(-c3ccc(C(F)(F)F)cc3)ccc2N1 ... 162 nM

Value sought for every listed molecule: IC50.
1. CC(=O)O[C@@]12CO[C@@H]1C[C@H](O)[C@@]1(C)C(=O)[C@H](O)C3=C(C)[C@@H](OC(=O)[C@H](O)[C@@H](NC(=O)OC(C)(C)C)c4ccccc4)C[C@@](O)([C@@H](OC(=O)c4ccccc4)[C@H]21)C3(C)C
2. Cc1ccc(C(=O)N(CCCN)[C@@H](c2nc3cc(Cl)ccc3c(=O)n2Cc2ccccc2)C(C)C)cc1F

(A)
0.18 nM
1 nM

====

experiment: Inhibition of human KSP KHC-L5 mutant using varying ATP levels in presence of saturating levels of microtubule by Lineweaver-Burke plot
Task for the reader: assign each of the following molecules its reported pKi.
One number for each entry, as −log10 of the molar value.

O=C1CCc2cc(-c3ccc(C(F)(F)F)cc3)ccc2N1 ... 8.68

Let's switch to this molecule now.
(Q) What value of pKi has been recorded for this entry: NC(=O)Nc1ccc(-c2ccc(C(F)(F)F)cc2)cc1F
(A) 8.22
